Data provenance is patent US11384075B2.

Target: human FGFR3 wild type enzyme (cytoplasmic domain) (Homo sapiens)
Construct: human FGFR3 wild type enzyme (cytoplasmic domain, from Carna Biosciences); purchased Carna Biosciences
Assay: FGFR3 wild type mobility shift assay (enzymatic assay)
Type: biochemical
Settings: 75 μM ATP, 50 minutes at 30° C., Caliper EZ reader II
# if measured IC50 < 0.7 nM: met  # else: not met

compound	assayed-system	label-value
CC(Nc1c(-c2nc3ccc(N4CC5CCC(C4)O5)cc3[nH]2)c(=O)[nH]c2ccccc12)c1ncccn1 (single isomer, unassigned) [Compound 44a]	human FGFR3 wild type enzyme (cytoplasmic domain) (Homo sapiens)	met
C[C@H](Nc1c(-c2nc3cc(C(F)(F)F)c(N4CCN(C)CC4)cc3[nH]2)c(=O)[nH]c2ccccc12)c1ccccn1 [Compound 14]	human FGFR3 wild type enzyme (cytoplasmic domain) (Homo sapiens)	not met
CC(Nc1c(-c2nc3ccc(N4CCOCC4)cc3[nH]2)c(=O)[nH]c2ccccc12)c1cscn1 (single isomer, unassigned) [Compound 52a]	human FGFR3 wild type enzyme (cytoplasmic domain) (Homo sapiens)	not met
CC(Nc1c(-c2nc3ccc(N4CCN(CCC(F)(F)F)CC4)cc3[nH]2)c(=O)[nH]c2ccccc12)c1ncccn1 (single isomer, unassigned) [Compound 41a]	human FGFR3 wild type enzyme (cytoplasmic domain) (Homo sapiens)	met
C[C@H](Nc1c(-c2nc3ccc(N4CCOCC4)cc3[nH]2)c(=O)[nH]c2ccc(F)cc12)c1ccccn1 [Compound 17]	human FGFR3 wild type enzyme (cytoplasmic domain) (Homo sapiens)	not met
CC(Nc1c(-c2nc3ccc(-c4cnn(C)c4)cc3[nH]2)c(=O)[nH]c2ccccc12)c1ncccn1 (single isomer, unassigned) [Compound 53b]	human FGFR3 wild type enzyme (cytoplasmic domain) (Homo sapiens)	not met

----------
Target: human FGFR3 wild type enzyme (cytoplasmic domain) (Homo sapiens, UniProt P22607)
Sequence (P22607 397-806 limits assumed): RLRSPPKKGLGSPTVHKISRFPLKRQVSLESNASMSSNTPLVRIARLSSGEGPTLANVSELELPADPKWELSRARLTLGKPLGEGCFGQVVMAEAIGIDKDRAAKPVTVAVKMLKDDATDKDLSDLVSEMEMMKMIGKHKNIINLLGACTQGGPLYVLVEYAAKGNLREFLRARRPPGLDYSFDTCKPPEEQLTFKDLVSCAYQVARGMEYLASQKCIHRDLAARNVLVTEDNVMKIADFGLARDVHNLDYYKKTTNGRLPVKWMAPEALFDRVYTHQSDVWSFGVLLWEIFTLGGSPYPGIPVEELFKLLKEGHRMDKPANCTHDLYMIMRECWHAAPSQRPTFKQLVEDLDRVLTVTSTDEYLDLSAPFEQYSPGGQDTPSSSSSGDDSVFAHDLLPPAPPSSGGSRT
A collection of molecules and their measured log10(IC50)
test-readout: log10(IC50) (log10 of the value in nM)

molecule	log10(IC50)
CC(Nc1c(-c2nc3ccc(N4CCOCC4)cc3[nH]2)c(=O)[nH]c2ccccc12)c1cnccn1 (single isomer, unassigned) [Compound 35b]	1.05
C[C@@H]1CN(c2ccc3nc(-c4c(N[C@@H](C)c5ccccn5)c5ccccc5[nH]c4=O)[nH]c3c2)C[C@@H](C)O1	0.70
CC(Nc1c(-c2nc3ccc(N4CCN(C)CC4)c(F)c3[nH]2)c(=O)[nH]c2ccccc12)c1ccccn1 (single isomer, unassigned) [Compound 13b]	0.02
CC(Nc1c(-c2nc3ccc(N4CCC(OC(F)(F)F)CC4)cc3[nH]2)c(=O)[nH]c2ccccc12)c1ncccn1 (single isomer, unassigned) [Compound 43a]	0.00
CC(Nc1c(-c2nc3ccc(N4CCOCC4)cc3[nH]2)c(=O)[nH]c2ccccc12)c1cocn1 (single isomer, unassigned) [Compound 51a]	0.12

----------
Target: human FGFR3 V555L enzyme (cytoplasmic domain carrying V555L mutation) (Homo sapiens, UniProt P22607, V555L)
Construct: human FGFR3 V555L enzyme (cytoplasmic domain carrying V555L mutation, from Carna Biosciences)
Sequence (P22607 397-806 V555L limits assumed): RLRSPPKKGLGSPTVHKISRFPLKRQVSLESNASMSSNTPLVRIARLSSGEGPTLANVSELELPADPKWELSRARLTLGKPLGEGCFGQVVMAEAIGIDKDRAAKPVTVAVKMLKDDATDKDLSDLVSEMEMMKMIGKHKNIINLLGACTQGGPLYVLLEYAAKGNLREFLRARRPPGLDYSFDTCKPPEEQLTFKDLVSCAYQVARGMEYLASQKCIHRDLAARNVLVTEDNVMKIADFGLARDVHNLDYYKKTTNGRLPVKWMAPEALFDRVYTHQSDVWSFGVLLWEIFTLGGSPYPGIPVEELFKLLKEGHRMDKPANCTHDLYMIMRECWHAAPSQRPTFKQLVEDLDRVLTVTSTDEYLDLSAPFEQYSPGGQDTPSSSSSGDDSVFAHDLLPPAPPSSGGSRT
Assay: FGFR3 V555L mobility shift assay (enzymatic assay)
Conditions: 40 μM ATP, 50 minutes at 30° C., Caliper EZ reader II
Protocol: FGFR3 V555L Mobility Shift Assay (Enzymatic Assay) In a final reaction volume of 25 μL, 0.04 ng/μL human FGFR3 V555L enzyme (cytoplasmic domain carrying V555L mutation, from Carna Biosciences) was incubated with 40 μM ATP, 1 μM FL-peptide 30 substrate and 250 nL of testing compound (1% DMSO final) in assay buffer (100 mM HEPES pH 7.4, 10 mM MgCl2, 0.003% Brij35, 1 mM DTT). […]
pIC50: −log10 of the molar value.
A collection of molecules and their measured pIC50

molecule	pIC50
C[C@H](Nc1c(-c2nc3ccc(N4CCN(C)CC4)cc3[nH]2)c(=O)[nH]c2ccccc12)c1ccccn1	9.61
CCC(Nc1c(-c2nc3ccc(N4CCOCC4)cc3[nH]2)c(=O)[nH]c2ccccc12)c1ncccn1 (single isomer, unassigned) [Compound 30a]	9.21
C[C@H](Nc1c(-c2nc3ccc(N4CCN(C)CC4)cc3[nH]2)c(=O)[nH]c2cc(F)ccc12)c1ccccn1	8.86
C[C@H](Nc1c(-c2nc3ccc(OC4CCN(C)CC4)cc3[nH]2)c(=O)[nH]c2ccccc12)c1ccccn1	9.30
C[C@H](Nc1c(-c2nc3ccc(N4CCOCC4)cc3[nH]2)c(=O)[nH]c2ccccc12)c1ccccn1	8.90
CC(C)C(Nc1c(-c2nc3ccc(N4CCOCC4)cc3[nH]2)c(=O)[nH]c2ccccc12)c1ncccn1 (single isomer, unassigned) [Compound 32a]	9.44
O=c1[nH]c2ccccc2c(NC(c2ncccn2)C2CC2)c1-c1nc2ccc(N3CCOCC3)cc2[nH]1 (single isomer, unassigned) [Compound 33a]	9.20
CC(C)N1CCN(c2ccc3nc(-c4c(N[C@@H](C)c5ccccn5)c5ccccc5[nH]c4=O)[nH]c3c2)CC1	9.87

----------
Target: NIH/3T3 cells overexpressing FGFR3 V555M-TACC3 fusion protein (Homo sapiens, UniProt P22607, V555M, cells depend on it)
Construct: NIH/3T3 FGFR3 V555M-TACC3 CTG (IC50); other: 72-hr incubation, CellTiter Glo, starting with 10 μM; fused on or other part: Q9Y6A5 (Transforming acidic coiled-coil-containing protein 3)
Sequence (P22607 whole entry V555M, the tested form may be a part): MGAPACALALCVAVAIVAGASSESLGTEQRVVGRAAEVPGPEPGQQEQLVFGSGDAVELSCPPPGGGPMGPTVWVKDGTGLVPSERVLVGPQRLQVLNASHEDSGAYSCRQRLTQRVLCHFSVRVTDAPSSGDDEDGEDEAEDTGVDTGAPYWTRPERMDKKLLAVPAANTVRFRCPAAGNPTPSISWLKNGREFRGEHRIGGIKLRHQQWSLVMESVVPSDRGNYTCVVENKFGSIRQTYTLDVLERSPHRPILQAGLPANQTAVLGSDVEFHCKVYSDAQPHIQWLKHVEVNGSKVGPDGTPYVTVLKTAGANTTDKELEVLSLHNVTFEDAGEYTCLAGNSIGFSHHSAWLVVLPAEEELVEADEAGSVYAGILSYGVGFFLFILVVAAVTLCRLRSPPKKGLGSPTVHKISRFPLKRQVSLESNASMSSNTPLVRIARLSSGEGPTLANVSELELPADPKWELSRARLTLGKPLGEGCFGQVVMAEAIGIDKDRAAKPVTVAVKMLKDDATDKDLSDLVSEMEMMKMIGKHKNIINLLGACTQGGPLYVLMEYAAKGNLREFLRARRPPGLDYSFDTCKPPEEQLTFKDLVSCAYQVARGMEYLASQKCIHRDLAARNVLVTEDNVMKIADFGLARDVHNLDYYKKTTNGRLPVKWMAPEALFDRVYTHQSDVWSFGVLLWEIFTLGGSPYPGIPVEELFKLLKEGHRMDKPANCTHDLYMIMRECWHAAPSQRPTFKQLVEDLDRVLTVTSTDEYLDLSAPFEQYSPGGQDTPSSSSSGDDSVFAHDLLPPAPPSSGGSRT
Test: NIH/3T3 FGFR3 V555M-TACC3 cell proliferation assay
Assay type: cell-based
Conditions: 72-hr incubation, CellTiter Glo, starting with 10 μM; read-out: NIH/3T3 FGFR3 V555M-TACC3 CTG (IC50)
test-readout: GI50 (nM)

molecule	readout-value
CC(Nc1c(-c2nc3cc(F)c(N4CCOCC4)cc3[nH]2)c(=O)[nH]c2ccccc12)c1ncccn1 (single isomer, unassigned) [Compound 27a]	5.8
C[C@@H](Nc1c(-c2nc3ccc(N4CCOCC4)cc3[nH]2)c(=O)[nH]c2ccccc12)c1ncccn1	41.8
CC(Nc1c(-c2nc3ccc(N4CCN(C)CC4)c(F)c3[nH]2)c(=O)[nH]c2ccccc12)c1ccccn1 (single isomer, unassigned) [Compound 13b]	4.34
CC(Nc1c(-c2nc3ccc(N4CCO[C@@H](C)C4)cc3[nH]2)c(=O)[nH]c2ccccc12)c1ncccn1 (single isomer, unassigned) [Compound 26a]	4.3
C[C@H](Nc1c(-c2nc3ccc(N4CCC(C(=O)O)CC4)cc3[nH]2)c(=O)[nH]c2ccccc12)c1ccccn1	61.7
CC(Nc1c(-c2nc3ccc(N4C[C@@H](C)O[C@H](C)C4)cc3[nH]2)c(=O)[nH]c2ccccc12)c1ncccn1 (single isomer, unassigned) [Compound 37a]	4.18
CCC(Nc1c(-c2nc3ccc(N4CCOCC4)cc3[nH]2)c(=O)[nH]c2ccccc12)c1ncccn1 (single isomer, unassigned) [Compound 30a]	5.34
C[C@@H]1CN(c2ccc3nc(-c4c(N[C@@H](C)c5ccccn5)c5ccccc5[nH]c4=O)[nH]c3c2)C[C@@H](C)O1	48.8
CC(Nc1c(-c2nc3ccc(N4CCC(OC(F)(F)F)CC4)cc3[nH]2)c(=O)[nH]c2ccccc12)c1ncccn1 (single isomer, unassigned) [Compound 43a]	9.93
COC(=O)C1CCN(c2ccc3nc(-c4c(N[C@@H](C)c5ccccn5)c5ccccc5[nH]c4=O)[nH]c3c2)CC1	99.7
Cc1ccnc(C(C)Nc2c(-c3nc4ccc(N5CCOCC5)cc4[nH]3)c(=O)[nH]c3ccccc23)n1 (single isomer, unassigned) [Compound 34a]	70.4
CC(Nc1c(-c2nc3ccc(N4CCOCC4)cc3[nH]2)c(=O)[nH]c2ccccc12)c1cocn1 (single isomer, unassigned) [Compound 51a]	30.2
CC(Nc1c(-c2nc3ccc(N4CCOCC4)c(F)c3[nH]2)c(=O)[nH]c2ccccc12)c1ncccn1 (single isomer, unassigned) [Compound 23a]	13.4
C[C@H](Nc1c(-c2nc3ccc(N4CCCCC4)cc3[nH]2)c(=O)[nH]c2ccccc12)c1ncccn1 (single isomer, unassigned) [Compound 28a]	8.35
C[C@H](Nc1c(-c2nc3ccc(N4CCOCC4)cc3[nH]2)c(=O)[nH]c2ccccc12)c1ncccn1	4.89
C[C@H](Nc1c(-c2nc3ccc(N4CCN(C)CC4)cc3[nH]2)c(=O)[nH]c2ccccc12)c1ccccn1	8.19
C[C@H](Nc1c(-c2nc3ccc(N4CCOC(C(=O)O)C4)cc3[nH]2)c(=O)[nH]c2ccccc12)c1ccccn1 (mixture of isomers)	1620
CC(Nc1c(-c2nc3cc(C(F)(F)F)c(N4CCN(C)CC4)cc3[nH]2)c(=O)[nH]c2ccccc12)c1ncccn1 (single isomer, unassigned) [Compound 25a]	4.82
COc1ccnc(C(C)Nc2c(-c3nc4ccc(N5CCOCC5)cc4[nH]3)c(=O)[nH]c3ccccc23)c1 (single isomer, unassigned) [Compound 48a]	547
C[C@H](Nc1c(-c2nc3ccc(N4CCN(C)CC4)cc3[nH]2)c(=O)[nH]c2cc(F)ccc12)c1ccccn1	51.4
CC(Nc1c(-c2nc3ccc(N4C[C@H](C)O[C@@H](C)C4)cc3[nH]2)c(=O)[nH]c2ccccc12)c1ncccn1 (single isomer, unassigned) [Compound 39a]	6.47
C[C@H](Nc1c(-c2nc3ccc(N4CCOCC4)cc3[nH]2)c(=O)[nH]c2ccccc12)c1ccccn1	34.3
Cc1c(N2CCOCC2)ccc2nc(-c3c(N[C@@H](C)c4ncccn4)c4ccccc4[nH]c3=O)[nH]c12	12.3
CC(Nc1c(-c2nc3ccc(N4CCOCC4)cc3[nH]2)c(=O)[nH]c2ccccc12)c1ccn(C(C)C)n1 (single isomer, unassigned) [Compound 36b]	170
